System: K. pneumoniae ATCC13883
test_protocol: Bacterial susceptibility testing (MIC, broth microdilution)
Format: cell-based
condition_notes: Klebsiella pneumoniae, ATCC13883, read-out: K. pneumoniae ATCC13883 MIC
Catalogue of compounds with associated log10 of MIC
Recorded MIC (log10, µg/mL)

Example cases with answers are listed next.
[[record]]
compound = "C[C@H](O)c1nccn1[C@@H](C#Cc1ccc(-c2ccc(OC3CN(C(=O)CO)C3)cc2)cc1)CO"
system_name = "K. pneumoniae ATCC13883"
endpoint = "log10 of MIC"
reported_measurement = 0.60

[[record]]
compound = "C[C@H](O)c1nccn1[C@@H](C#Cc1ccc(-c2ccc(OC3CN(C(=O)N(C)C)C3)cc2)cc1)CO"
system_name = "K. pneumoniae ATCC13883"
endpoint = "log10 of MIC"
reported_measurement = 0.30

[[record]]
compound = "C[C@H](O)c1nccn1[C@@H](C#Cc1ccc(-c2ccc(OC3CN(CC(F)(F)F)C3)cc2)cc1)CO"
system_name = "K. pneumoniae ATCC13883"
endpoint = "log10 of MIC"
reported_measurement = 0.30

[[record]]
compound = "C[C@H](O)c1nccn1[C@@H](C#Cc1ccc(-c2ccc(OC3CN(C(=O)N4CCOCC4)C3)cc2)cc1)CO"
system_name = "K. pneumoniae ATCC13883"
endpoint = "log10 of MIC"
reported_measurement = 0.90


Query block: Lab note: need log10 of MIC for C[C@H](O)c1nccn1[C@@H](C#Cc1ccc(-c2ccc(NC3CC3)cc2)cc1)CO on K. pneumoniae ATCC13883, anyone have it?
Result block: -0.30

Query block: # get_value(readout= log10 of MIC, system= K. pneumoniae ATCC13883) for CC(N1CC(Oc2ccc(-c3ccc(C#C[C@@H](CO)n4ccnc4[C@H](C)O)cc3)cc2)C1)C(F)(F)F (mixture of isomers)
Result block: 0.90

Query block: Kindly state the measured log10 of MIC obtained for C[C@H](O)c1nccn1[C@@H](C#Cc1ccc(-c2ccc(O[C@@H]3C[C@H]3NCC#N)cc2)cc1)CO (racemic) with K. pneumoniae ATCC13883.
Result block: 0.00

----------
Tested on: P. aeruginosa ATCC27853
test_protocol: Bacterial susceptibility testing (MIC, broth microdilution)
Assay type: cell-based
condition_notes: Pseudomonas aeruginosa, ATCC27853, broth microdilution, cation adjusted Mueller-Hinton Broth, 35° C., 18-24 h; read-out: P. aeruginosa ATCC27853 MIC
endpoint: MIC (µg/mL)
Form entry: value (µg/mL) — number only.

[[record]]
molecule = "C[C@H](O)c1nccn1[C@@H](C#Cc1ccc(-c2ccc([C@H]3COC[C@@H]3O)cc2)cc1)CO (single isomer, unassigned) [Compound 115]"
system_name = "P. aeruginosa ATCC27853"
reported_measurement = 8

[[record]]
molecule = "C[C@H](O)c1nccn1[C@@H](C#Cc1ccc(-c2ccc(O[C@@H]3CCOC[C@H]3O)c(F)c2)cc1)CO (single isomer, unassigned) [Compound 52]"
system_name = "P. aeruginosa ATCC27853"
reported_measurement = 8

[[record]]
molecule = "C[C@H](O)c1nccn1[C@@H](C#Cc1ccc(-c2ccc([C@@H](C)O)cc2)cc1)CO [Compound 138]"
system_name = "P. aeruginosa ATCC27853"
reported_measurement = 16


Query block: Looking for the measured MIC of C[C@H](O)c1nccn1[C@@H](C#Cc1ccc(-c2ccc(O[C@H]3C[C@@H](C#N)C3)cc2)cc1)CO (racemic) [Compound 129] , can you help?
Result block: 4

Query block: What MIC value was documented for this molecule, C[C@H](O)c1nccn1[C@@H](C#Cc1ccc(-c2ccc(CO[C@@H]3COC[C@H]3O)cc2F)cc1)CO (single isomer, unassigned) [Compound 49] ?
Result block: 4

Query block: If you can, please state the reported MIC value of C[C@H](O)c1nccn1[C@@H](C#Cc1ccc(-c2ccc(N[C@@H]3COC[C@H]3O)cc2)cc1)CO (single isomer, unassigned) [Compound 70] .
Result block: 1

Query block: Name the recorded MIC for C[C@H](O)c1nccn1[C@@H](C#Cc1ccc(-c2ccc(CO[C@@H]3COC[C@H]3O)c(F)c2)cc1)CO (racemic) [Compound 44] .
Result block: 8

Query block: Give the measured MIC of C[C@H](O)c1nccn1[C@@H](C#Cc1ccc(-c2ccc(N[C@@H]3CCC[C@H]3O)cc2)cc1)CO [Compound 78] .
Result block: 4

Query block: Return reported MIC; argument: C[C@H](O)c1nccn1[C@@H](C#Cc1ccc(-c2ccc(O[C@H]3C[C@H](CNCC#N)C3)cc2)cc1)CO (racemic) [Compound 133]
Result block: 4

Query block: Which MIC value belongs to C[C@H](O)c1nccn1[C@@H](C#Cc1ccc(-c2ccc(N[C@H]3COC[C@@H]3O)cc2)cc1)CO [Compound 71] ?
Result block: 4

----------
System: P. aeruginosa ATCC27853
test_protocol: Bacterial susceptibility testing (MIC, broth microdilution)
Assay type: cell-based
condition_notes: Pseudomonas aeruginosa, ATCC27853, broth microdilution, cation adjusted Mueller-Hinton Broth, 35° C., 18-24 h; read-out: P. aeruginosa ATCC27853 MIC
endpoint: MIC (µg/mL)
Answer with a number only, understood to be in µg/mL.

Here are 10 molecules together with their reported answers.
[[record]]
molecule = "C[C@H](O)c1nccn1[C@@H](C#Cc1ccc(-c2ccc(O[C@@H]3COC[C@H]3O)cc2F)cc1)CO (racemic) [Compound 1]"
value_units = "µg/mL"
reported_measurement = 4

[[record]]
molecule = "C[C@H](O)c1nccn1[C@@H](C#Cc1ccc(-c2ccc(O[C@@H]3C[S+]([O-])C[C@H]3O)cc2)cc1)CO (single isomer, unassigned)"
value_units = "µg/mL"
reported_measurement = 2

[[record]]
molecule = "C[C@H](O)c1nccn1[C@@H](C#Cc1ccc(-c2ccc(N3CC4(COC4)C3)cc2)cc1)CO (single isomer, unassigned)"
value_units = "µg/mL"
reported_measurement = 4

[[record]]
molecule = "C[C@H](O)c1nccn1[C@@H](C#Cc1ccc(-c2ccc(N[C@H]3COC[C@@H]3O)c(F)c2)cc1)CO (single isomer, unassigned)"
value_units = "µg/mL"
reported_measurement = 4

[[record]]
molecule = "C[C@H](O)c1nccn1[C@@H](C#Cc1ccc(-c2ccc(O[C@H]3C[C@H](NS(C)(=O)=O)C3)cc2)cc1)CO (racemic)"
value_units = "µg/mL"
reported_measurement = 4

[[record]]
molecule = "CNC(=O)C(C)Oc1ccc(-c2ccc(C#C[C@@H](CO)n3ccnc3[C@H](C)O)cc2)cc1 (mixture of isomers)"
value_units = "µg/mL"
reported_measurement = 8

[[record]]
molecule = "CNC(=O)[C@H]1C[C@@H](Oc2ccc(-c3ccc(C#C[C@@H](CO)n4ccnc4[C@H](C)O)cc3)cc2)C1 (racemic)"
value_units = "µg/mL"
reported_measurement = 1

[[record]]
molecule = "C[C@H](O)c1nccn1[C@@H](C#Cc1ccc(-c2ccc(O[C@@H]3CCOC[C@H]3O)cc2F)cc1)CO (racemic) [Compound 54]"
value_units = "µg/mL"
reported_measurement = 8

[[record]]
molecule = "C[C@H](O)c1nccn1[C@@H](C#Cc1ccc(-c2ccc(OC3CN(CC#N)C3)cc2F)cc1)CO (single isomer, unassigned)"
value_units = "µg/mL"
reported_measurement = 4

[[record]]
molecule = "C[C@H](O)c1nccn1[C@@H](C#Cc1ccc(-c2ccc(O[C@@H]3COC[C@H]3O)cc2)cc1F)CO (racemic)"
value_units = "µg/mL"
reported_measurement = 8


Query block: Requested read-out MIC, target or system P. aeruginosa ATCC27853, entry C[C@H](O)c1nccn1[C@@H](C#Cc1ccc(-c2ccc(NC3CC(NCC#N)C3)cc2)cc1)CO (stereo partly shown)
Result block: 4

Query block: Query the reported MIC for P. aeruginosa ATCC27853; item: C[C@H](O)c1nccn1[C@@H](C#Cc1ccc(-c2ccc(O[C@@H]3COC[C@H]3O)cc2F)cc1)CO (single isomer, unassigned) [Compound 3]
Result block: 2

Query block: Recall the recorded MIC for C[C@H](O)c1nccn1[C@@H](C#Cc1ccc(-c2ccc(OCC3(C)COC3)cc2)cc1)CO with P. aeruginosa ATCC27853 and state it.
Result block: 4

----------
System: P. aeruginosa ATCC27853
test_protocol: Bacterial susceptibility testing (MIC, broth microdilution)
Format: cell-based
condition_notes: Pseudomonas aeruginosa, ATCC27853, broth microdilution, cation adjusted Mueller-Hinton Broth, 35° C., 18-24 h; read-out: P. aeruginosa ATCC27853 MIC
endpoint: MIC

Query block: Return MIC measured with P. aeruginosa ATCC27853 given this compound: C[C@H](O)c1nccn1[C@@H](C#Cc1ccc(-c2ccc3c(c2)NCCO3)cc1)CO [Compound 83]
Result block: > 32 mg/L

Query block: Form: Entry = C[C@H](O)c1nccn1[C@@H](C#Cc1ccc(-c2ccc(CO[C@H]3COC[C@@H]3O)c(F)c2)cc1)CO (single isomer, unassigned) [Compound 45] | System = P. aeruginosa ATCC27853 | MIC = ____
Result block: 4 mg/L

Query block: Requested read-out MIC, target or system P. aeruginosa ATCC27853, entry C[C@H](O)c1nccn1[C@@H](C#Cc1ccc(-c2ccc3c(c2)CCN3)cc1)CO [Compound 85]
Result block: > 32 mg/L

Query block: Record lookup: for P. aeruginosa ATCC27853, what MIC belongs to C[C@H](O)c1nccn1[C@@H](C#Cc1ccc(-c2ccc(OC3CC4(C3)CN(CC#N)C4)cc2)cc1)CO (single isomer, unassigned) [Compound 67] ?
Result block: 4 mg/L

Query block: Which MIC is reported with P. aeruginosa ATCC27853 for this entry: C[C@H](O)c1ccc(-c2ccc(C#C[C@@H](CO)n3ccnc3[C@H](C)O)cc2)cc1 (single isomer, unassigned) [Compound 134] ?
Result block: 8 mg/L

Query block: Lookup: MIC / P. aeruginosa ATCC27853 / CNC(=O)CN1CC(Oc2ccc(-c3ccc(C#C[C@@H](CO)n4ccnc4[C@H](C)O)cc3)cc2)C1 (single isomer, unassigned) [Compound 100]
Result block: 2 mg/L

Query block: Value wanted: MIC (P. aeruginosa ATCC27853) of entry C[C@H](O)c1nccn1[C@@H](C#Cc1ccc(-c2ccc(C3CC(C)(O)C3)cc2)cc1)CO (stereo partly shown) [Compound 111]
Result block: 2 mg/L

Query block: Which measured MIC belongs to C[C@H](O)c1nccn1[C@@H](C#Cc1ccc(-c2ccc(OC3COC[C@H]3O)c(F)c2)cc1)CO (mixture of isomers) [Compound 6] , tested on P. aeruginosa ATCC27853?
Result block: 4 mg/L

Query block: Provide value of MIC for this record tested with P. aeruginosa ATCC27853: COC1CN(c2ccc(-c3ccc(C#C[C@@H](CO)n4ccnc4[C@H](C)O)cc3)cc2)C1 [Compound 110]
Result block: > 32 mg/L

Query block: So what MIC did C[C@H](O)c1nccn1[C@@H](C#Cc1ccc(-c2ccc(O[C@H]3CCOC[C@@H]3O)cc2)cc1)CO [Compound 73] get with P. aeruginosa ATCC27853?
Result block: 8 mg/L

Query block: // map C[C@H](O)c1nccn1[C@@H](C#Cc1ccc(-c2ccc(OC3CN(CC#N)C3)c(F)c2)cc1)CO (single isomer, unassigned) [Compound 64] to recorded MIC (system: P. aeruginosa ATCC27853)
Result block: 8 mg/L

Query block: Please state recorded MIC (tested on P. aeruginosa ATCC27853) of CNC(=O)N1CC(Oc2ccc(-c3ccc(C#C[C@@H](CO)n4ccnc4[C@H](C)O)cc3)cc2)C1 [Compound 90]
Result block: 2 mg/L

Query block: Fill in the recorded MIC for this compound, with P. aeruginosa ATCC27853 as test system: C[C@H](O)c1nccn1[C@@H](C#Cc1ccc(-c2ccc(O[C@@H]3COC[C@H]3O)c(F)c2F)cc1)CO (single isomer, unassigned) [Compound 13]
Result block: 16 mg/L

Query block: Requested read-out MIC, target or system P. aeruginosa ATCC27853, entry C[C@H](O)c1nccn1[C@@H](C#Cc1ccc(-c2ccc(OC3COC[C@H]3O)c(F)c2)cc1)CO (single isomer, unassigned) [Compound 8]
Result block: 4 mg/L
